Provenance of the data: paper PMC6424957

- system.tested: equine serum butyrylcholinesterase (BChE) (Equus caballus, UniProt P81908)
- Construct: butyrylcholinesterase (BChE, EC 3.1.1.8, from equine serum)
- Sequence (P81908 whole entry): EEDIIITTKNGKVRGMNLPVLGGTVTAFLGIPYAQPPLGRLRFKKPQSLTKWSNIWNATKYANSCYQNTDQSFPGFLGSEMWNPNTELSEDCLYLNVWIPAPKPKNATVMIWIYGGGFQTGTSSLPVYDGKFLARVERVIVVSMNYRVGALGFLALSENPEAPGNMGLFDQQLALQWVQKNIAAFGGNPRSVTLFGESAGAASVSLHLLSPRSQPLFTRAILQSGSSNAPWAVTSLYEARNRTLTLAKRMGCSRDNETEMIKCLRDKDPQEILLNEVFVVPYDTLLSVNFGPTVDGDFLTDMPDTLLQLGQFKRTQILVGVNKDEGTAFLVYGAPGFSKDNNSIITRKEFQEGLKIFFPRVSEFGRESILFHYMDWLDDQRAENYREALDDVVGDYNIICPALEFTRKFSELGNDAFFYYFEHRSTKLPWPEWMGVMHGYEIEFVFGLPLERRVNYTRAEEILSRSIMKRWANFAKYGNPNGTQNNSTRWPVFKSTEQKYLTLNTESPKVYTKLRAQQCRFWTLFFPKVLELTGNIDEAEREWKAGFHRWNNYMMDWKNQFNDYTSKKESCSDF
- experiment.summary: biochemical
- experimental.setup: mean ± SEM, n ≥ 3
- Protocol: Acetylcholinesterase (AChE, EC 3.1.1.7, from human erythrocyte and E. electricus (EeAChE) (type VI-S), butyrylcholinesterase (BChE, EC 3.1.1.8, from equine serum), carboxylesterase (CaE, EC 3.1.1.1, from porcine liver), acetylthiocholine iodide (ATCh), butylthiocholine iodide (BTCh), 5,5′-dithiobis-(2-nitrobenzoic acid) (DTNB), 4-nitrophenyl acetate (4-NPA), were purchased from Sigma-Aldrich (Germany). AChE and BChE activities were measured by the Ellman method as described earlier. […]
pIC50: −log10 of the molar value.
Mark NO for pIC50 values under 5, and YES for everything at or above.

# bool: pIC50 of `CCN1CCc2c(c3cc(C)ccc3n2CCC(=O)N2c3ccc(N(C)C)cc3Sc3cc(N(C)C)ccc32)C1.Cl.Cl.Cl` >= 5 NO

# bool: pIC50 of `CCN1CCc2c(c3ccccc3n2CCC(=O)N2c3ccc(N(C)C)cc3Sc3cc(N(C)C)ccc32)C1.Cl.Cl.Cl` >= 5 YES

# bool: pIC50 of `Cc1ccc2c(c1)c1c(n2CCC(=O)N2c3ccc(N(C)C)cc3Sc3cc(N(C)C)ccc32)CCN(C)C1` >= 5 YES

# bool: pIC50 of `Cc1ccc2c(c1)c1c(n2CCC(=O)N2c3ccc(N(C)C)cc3Sc3cc(N(C)C)ccc32)CCN(C(C)C)C1.Cl.Cl.Cl` >= 5 YES

# bool: pIC50 of `CN1CCc2c(c3ccccc3n2CCC(=O)N2c3ccc(N(C)C)cc3Sc3cc(N(C)C)ccc32)C1.Cl.Cl.Cl` >= 5 YES

# bool: pIC50 of Cc1ccc2c(c1)c1c(n2CCc2ccc(C)nc2)CCN(C)C1 [Dimebon, reference compound] >= 5 YES
